Listing of recorded melting point by entry.
VALUE TYPE: melting point

INSERT INTO results (compound, measured_value) VALUES
  ('COc1ccc(-c2cc(C)nn2-c2cc(OC)c(OC)c(OC)c2)cc1O [Compound 7i]', '130 to 131 °C'),
  ('COc1ccc(-c2c(C=O)c(C)nn2-c2cc(OC)c(OC)c(OC)c2)cc1O [Compound 7l]', '97 to 98 °C'),
  ('COc1ccc(-c2c(Br)c(C)nn2-c2cc(OC)c(OC)c(OC)c2)cc1N [Compound 7o]', '128 to 129 °C'),
  ('COc1cc(-c2cc(C)nn2-c2cc(N)ccc2C)cc(OC)c1OC [Compound 8e]', '69 to 70 °C'),
  ('COc1ccc(-c2cc(C)nn2-c2cc(OC)c(OC)c(OC)c2)cc1N [Compound 7k]', '129 to 130 °C');

----------
VALUE TYPE: melting point

INSERT INTO measurements (input_smiles, measured_value) VALUES
  ('COc1cc(-c2cc(C)nn2-c2ccccc2)cc(OC)c1OC', '88 to 89 °C'),
  ('COc1ccc(-n2nc(C)cc2-c2cc(OC)c(OC)c(OC)c2)cc1[N+](=O)[O-]', '118 to 119 °C'),
  ('C=CCOc1cc(-c2cc(C)nn2-c2cc(OC)c(OC)c(OC)c2)ccc1OC', '79 to 80 °C'),
  ('COc1ccc(-n2nc(C)cc2-c2cc(OC)c(OC)c(OC)c2)cc1N', '56 to 57 °C'),
  ('COc1ccc(-n2nc(C)cc2-c2cc(OC)c(OC)c(OC)c2)cc1O', '167 to 168 °C'),
  ('COc1cc(-n2nc(C)cc2-c2ccc(F)cc2)cc(OC)c1OC', '104 to 105 °C');

----------
# Tested on: gastric adenocarcinoma cell line SGC-7901
# ASSAY TEXT: MTT antiproliferative assay, SGC-7901
# Type: cell-based
# REPORTED CONDITIONS: Homo sapiens, 72 h drug exposure, triplicate, read-out: Antiproliferative activity (IC50 ± SD) SGC-7901
The label True is reserved for IC50 strictly under 6 µM; False covers values equal to or above it.

INSERT INTO assay_data (molecule, subject_of_test, cat) VALUES
  ('CCc1cc(-c2ccc(OC)c([N+](=O)[O-])c2)n(-c2cc(OC)c(OC)c(OC)c2)n1 [Compound 7p]', 'gastric adenocarcinoma cell line SGC-7901', 'False'),
  ('COc1ccc(-n2nc(C)cc2-c2cc(OC)c(OC)c(OC)c2)cc1[N+](=O)[O-] [Compound 8f]', 'gastric adenocarcinoma cell line SGC-7901', 'False'),
  ('COc1cc(-c2cc(C)nn2-c2ccccc2)cc(OC)c1OC [Compound 8a]', 'gastric adenocarcinoma cell line SGC-7901', 'False'),
  ('C=CCOc1cc(-n2nc(C)cc2-c2cc(OC)c(OC)c(OC)c2)ccc1OC [Compound 8h]', 'gastric adenocarcinoma cell line SGC-7901', 'False'),
  ('C=CCOc1cc(-c2cc(C)nn2-c2cc(OC)c(OC)c(OC)c2)ccc1OC [Compound 7g]', 'gastric adenocarcinoma cell line SGC-7901', 'False'),
  ('COc1ccc(-c2cc(C)nn2-c2cc(OC)c(OC)c(OC)c2)cc1F [Compound 7e]', 'gastric adenocarcinoma cell line SGC-7901', 'True'),
  ('CCCc1cc(-c2ccc(OC)c(N)c2)n(-c2cc(OC)c(OC)c(OC)c2)n1 [Compound 7s]', 'gastric adenocarcinoma cell line SGC-7901', 'False'),
  ('COc1cc(-c2cc(C)nn2-c2cc(OC)c(OC)c(OC)c2)ccc1O [Compound 7j]', 'gastric adenocarcinoma cell line SGC-7901', 'False'),
  ('COc1ccc(-n2nc(C)cc2-c2cc(OC)c(OC)c(OC)c2)cc1 [Compound 8b]', 'gastric adenocarcinoma cell line SGC-7901', 'False'),
  ('COc1ccc(-n2nc(C)cc2-c2cc(OC)c(OC)c(OC)c2)cc1N [Compound 8g]', 'gastric adenocarcinoma cell line SGC-7901', 'False'),
  ('COc1cc(-n2nc(C)cc2-c2ccccc2)cc(OC)c1OC [Compound 7a]', 'gastric adenocarcinoma cell line SGC-7901', 'False'),
  ('COc1ccc(/C=C\c2cc(OC)c(OC)c(OC)c2)cc1O [Compound 1, Combretastatin A-4]', 'gastric adenocarcinoma cell line SGC-7901', 'True');

----------
# System: pulmonary adenocarcinoma cell line A549
# ASSAY TEXT: MTT antiproliferative assay, A549
# Format: cell-based
# REPORTED CONDITIONS: Homo sapiens, 72 h drug exposure, triplicate, read-out: Antiproliferative activity (IC50 ± SD) A549
The threshold is 20 µM. Values of IC50 beneath it are tagged Yes; values meeting or exceeding it are tagged No.

INSERT INTO measurements (input_smiles, subject_of_test, cat) VALUES
  ('COc1cc(-n2nc(C)cc2-c2ccccc2)cc(OC)c1OC', 'pulmonary adenocarcinoma cell line A549', 'No'),
  ('COc1cc(-n2nc(C)cc2-c2ccc(F)cc2)cc(OC)c1OC', 'pulmonary adenocarcinoma cell line A549', 'No'),
  ('C=CCOc1ccc(-c2cc(C)nn2-c2cc(OC)c(OC)c(OC)c2)cc1OC', 'pulmonary adenocarcinoma cell line A549', 'No'),
  ('COc1ccc(-c2cc(C)nn2-c2cc(OC)c(OC)c(OC)c2)cc1N', 'pulmonary adenocarcinoma cell line A549', 'Yes'),
  ('CCCc1cc(-c2ccc(OC)c([N+](=O)[O-])c2)n(-c2cc(OC)c(OC)c(OC)c2)n1', 'pulmonary adenocarcinoma cell line A549', 'No'),
  ('COc1cc(-c2cc(C)nn2-c2ccccc2)cc(OC)c1OC', 'pulmonary adenocarcinoma cell line A549', 'No'),
  ('COc1ccc(-c2cc(C)nn2-c2cc(OC)c(OC)c(OC)c2)cc1[N+](=O)[O-]', 'pulmonary adenocarcinoma cell line A549', 'No'),
  ('COc1cc(-c2cc(C)nn2-c2cc([N+](=O)[O-])ccc2C)cc(OC)c1OC', 'pulmonary adenocarcinoma cell line A549', 'No'),
  ('COc1ccc(-n2nc(C)cc2-c2cc(OC)c(OC)c(OC)c2)cc1[N+](=O)[O-]', 'pulmonary adenocarcinoma cell line A549', 'No'),
  ('C=CCOc1cc(-n2nc(C)cc2-c2cc(OC)c(OC)c(OC)c2)ccc1OC', 'pulmonary adenocarcinoma cell line A549', 'No'),
  ('COc1ccc(-c2c(Br)c(C)nn2-c2cc(OC)c(OC)c(OC)c2)cc1[N+](=O)[O-]', 'pulmonary adenocarcinoma cell line A549', 'No'),
  ('COc1ccc(-c2cc(C)nn2-c2cc(OC)c(OC)c(OC)c2)cc1F', 'pulmonary adenocarcinoma cell line A549', 'Yes'),
  ('COc1cc(-c2cc(C)nn2-c2ccc(C)cc2)cc(OC)c1OC', 'pulmonary adenocarcinoma cell line A549', 'Yes'),
  ('COc1ccc(-n2nc(C)cc2-c2cc(OC)c(OC)c(OC)c2)cc1O', 'pulmonary adenocarcinoma cell line A549', 'No'),
  ('COc1ccc(-c2c(CO)c(C)nn2-c2cc(OC)c(OC)c(OC)c2)cc1O', 'pulmonary adenocarcinoma cell line A549', 'Yes'),
  ('COc1cc(-c2cc(C)nn2-c2cc(OC)c(OC)c(OC)c2)ccc1O', 'pulmonary adenocarcinoma cell line A549', 'No'),
  ('CCc1cc(-c2ccc(OC)c(N)c2)n(-c2cc(OC)c(OC)c(OC)c2)n1', 'pulmonary adenocarcinoma cell line A549', 'Yes'),
  ('C=CCOc1cc(-c2cc(C)nn2-c2cc(OC)c(OC)c(OC)c2)ccc1OC', 'pulmonary adenocarcinoma cell line A549', 'No'),
  ('COc1ccc(-n2nc(C)cc2-c2cc(OC)c(OC)c(OC)c2)cc1N', 'pulmonary adenocarcinoma cell line A549', 'No'),
  ('CCc1cc(-c2ccc(OC)c([N+](=O)[O-])c2)n(-c2cc(OC)c(OC)c(OC)c2)n1', 'pulmonary adenocarcinoma cell line A549', 'No');

From: paper PMC4462585
